- test_details: Cytotoxicity assay (MTT)
- protocol_conditions: mouse, RAW 264.7 cells
reported_property: CC50 at 24 h
Write the numeric value and follow it with the unit.

q: Which CC50 at 24 h value belongs to `COC1=CC(=O)C=C(OC)C1=O` ?
a: 26.2 µM

----------
Please provide measured SI (selectivity index) for the entries that follow.
- Test system: nitric oxide (NO) production in RAW264.7 macrophages stimulated by lipopolysaccharide
- test_details: NO inhibition assay (Griess method) in LPS-stimulated RAW264.7 cells
- Type: cell-based
- protocol_conditions: calculated from CC50 and IC50
Numbers only.

| compound | SI (selectivity index) |
| --- | --- |
| COc1ccc(C2COc3cc(OC4OC(CO)C(O)C(O)C4O)ccc3C2O)c(O)c1 (centres unmarked) | 5.86 |
| COc1ccc(-c2coc3cc([O-])ccc3c2=O)cc1.[Na+] [Compound 7, formononetin sodium] | 14.73 |
| O=C1C[C@@H](c2ccc(O)cc2)Oc2cc(O)ccc21 | 19.25 |
| COc1ccc(-c2cc3cc(O)c(O)cc3oc2=O)c(OC)c1OC | 24.81 |
| O=c1c(-c2ccc(O)cc2)coc2cc(O)cc(O)c12 | 210.84 |

Turning now to a further compound:
q: Which SI (selectivity index) value belongs to `COc1ccc(-c2coc3cc(O)ccc3c2=O)cc1` ?
a: 4.88
